Origin of the recorded values: patent US7378397B2

Target: TRH-DE (Sus scrofa)
Construct: The inventor purified TRH-DE from porcine brain according to purification procedures previously published by Dr. K. Bauer; from tissue; host or cells: porcine brain (TRH-DE); bovine kidney (DPP-IV, gift from Dr. C. H. Williams)
Test: continuous coupled fluorometric TRH-DE assay (TRHAMC substrate, DPP-IV coupling enzyme)
Type: biochemical, porcine
Settings: calculated from percent inhibition measured in duplicate at 5 μM substrate
Collected Ki values appear next to each entry.
Just so you know, I need the unit written after the number.

Enter recorded Ki with TRH-DE (Sus scrofa) for NC(=O)C[C@H](NC(=O)[C@@H]1CCC(=O)N1)C(=O)N1CCC[C@H]1C(=O)Nc1ccccc1O here. 6.62 µM

Enter recorded Ki with TRH-DE (Sus scrofa) for COc1ccc(Cl)cc1NC(=O)[C@@H]1CCCN1C(=O)[C@H](CC(N)=O)NC(=O)[C@@H]1CCC(=O)N1 [5-chloro-2-methoxy anilide] here. 9.95 µM

Enter recorded Ki with TRH-DE (Sus scrofa) for COc1ccc(NC(=O)[C@@H]2CCCN2C(=O)[C@H](CC(N)=O)NC(=O)[C@@H]2CCC(=O)N2)cc1 [p-anisidide] here. 3.24 µM

###

Molecular target: TRH-DE (Sus scrofa)
Construct: The inventor purified TRH-DE from porcine brain according to purification procedures previously published by Dr. K. Bauer; from tissue; host or cells: porcine brain (TRH-DE); bovine kidney (DPP-IV, gift from Dr. C. H. Williams)
Experiment: continuous coupled fluorometric TRH-DE assay (TRHAMC substrate, DPP-IV coupling enzyme)
Assay type: biochemical, porcine
Settings: from the percent inhibition (n = 3) in the presence of 5 μM substrate
Where a SMILES comes first, the peptide text is derived from it. [ ]: non-standard residue; d: D form. The star is where a group is joined. AMC = Cc1cc(=O)oc2cc(N*)ccc12; pGlu = O=C1CC[C@@H](C(=O)O)N1
Collected pKi values appear next to each entry.
Keep in mind that pKi stands for -log10 of concentration in molar terms.

| compound | system tested | value measured |
| --- | --- | --- |
| NC(=O)C[C@H](NC(=O)[C@@H]1CCC(=O)N1)C(=O)N1CCC[C@H]1C(=O)N[C@@H](Cc1c[nH]c2ccccc12)C(=O)N[C@@H](CO)C(=O)N[C@@H](Cc1ccc(O)cc1)C(N)=O [Glp-Asn-Pro-Trp-Ser-Tyr-NH2] ([pGlu]NPWSY-NH2) | TRH-DE (Sus scrofa) | 5.09 |

Now look at this one.
In one line, give reported pKi of the entry Cc1cc(=O)oc2cc(NC(=O)[C@H](Cc3c[nH]c4ccccc34)NC(=O)[C@@H]3CCCN3C(=O)[C@H](CC(N)=O)NC(=O)[C@@H]3CCC(=O)N3)ccc12 [Glp-Asn-Pro-Trp-AMC] ([pGlu]NPW-{AMC}) . 7.10

###

Target: TRH-DE (Sus scrofa, UniProt A0A287AP33)
Construct: The inventor purified TRH-DE from porcine brain according to purification procedures previously published by Dr. K. Bauer; from tissue; host or cells: porcine brain (TRH-DE); bovine kidney (DPP-IV, gift from Dr. C. H. Williams)
Sequence (A0A287AP33 1-1066): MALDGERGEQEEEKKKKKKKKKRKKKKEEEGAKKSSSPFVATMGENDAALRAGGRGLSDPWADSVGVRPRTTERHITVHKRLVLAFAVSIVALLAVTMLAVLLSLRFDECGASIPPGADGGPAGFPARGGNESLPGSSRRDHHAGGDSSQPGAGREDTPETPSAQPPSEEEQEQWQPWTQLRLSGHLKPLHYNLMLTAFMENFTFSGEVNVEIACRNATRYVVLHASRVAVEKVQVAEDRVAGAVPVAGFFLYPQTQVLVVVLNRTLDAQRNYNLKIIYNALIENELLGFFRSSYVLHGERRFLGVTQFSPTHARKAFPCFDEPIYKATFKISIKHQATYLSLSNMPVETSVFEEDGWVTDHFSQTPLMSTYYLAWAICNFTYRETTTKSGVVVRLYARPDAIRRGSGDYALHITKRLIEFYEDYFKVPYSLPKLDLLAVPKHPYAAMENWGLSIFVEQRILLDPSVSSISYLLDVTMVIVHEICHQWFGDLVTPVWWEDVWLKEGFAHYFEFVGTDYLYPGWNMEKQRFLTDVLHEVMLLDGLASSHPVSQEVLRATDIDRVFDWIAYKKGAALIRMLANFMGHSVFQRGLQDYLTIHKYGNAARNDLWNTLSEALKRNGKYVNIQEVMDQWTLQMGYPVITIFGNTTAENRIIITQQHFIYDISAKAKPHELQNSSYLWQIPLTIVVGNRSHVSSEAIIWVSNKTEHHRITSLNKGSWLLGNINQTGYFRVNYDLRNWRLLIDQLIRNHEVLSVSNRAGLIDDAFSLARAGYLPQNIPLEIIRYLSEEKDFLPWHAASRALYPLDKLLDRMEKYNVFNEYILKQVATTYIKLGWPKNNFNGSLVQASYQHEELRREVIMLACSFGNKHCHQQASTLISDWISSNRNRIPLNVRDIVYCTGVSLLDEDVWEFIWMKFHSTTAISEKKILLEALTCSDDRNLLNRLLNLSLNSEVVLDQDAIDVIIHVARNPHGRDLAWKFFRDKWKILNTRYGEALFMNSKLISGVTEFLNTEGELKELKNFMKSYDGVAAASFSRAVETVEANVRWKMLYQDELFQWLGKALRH
Experiment: continuous coupled fluorometric TRH-DE assay (TRHAMC substrate, DPP-IV coupling enzyme)
Type: biochemical, porcine
Conditions: non-linear regression, five TRHAMC concentrations and at least three peptide concentrations; mean±S.D. (n=3)
Where a SMILES comes first, the peptide text is derived from it. [ ]: non-standard residue; d: D form. The star is where a group is joined. AMC = Cc1cc(=O)oc2cc(N*)ccc12; pGlu = O=C1CC[C@@H](C(=O)O)N1; Phg = N[C@H](C(=O)O)c1ccccc1
Collected Ki values appear next to each entry.
Supply the numeric figure in µM, leaving out any unit text.

| compound | system tested | Ki, µM |
| --- | --- | --- |
| NC(=O)[C@@H]1CCCN1C(=O)[C@@H](NC(=O)[C@@H]1CCC(=O)N1)c1ccccc1 [Glp-Phg-ProNH2] ([pGlu]-[Phg]-Pro-NH2) | TRH-DE (Sus scrofa, UniProt A0A287AP33) | 356 |

Enter recorded Ki with TRH-DE (Sus scrofa, UniProt A0A287AP33) for NC(=O)CC[C@H](NC(=O)[C@@H]1CCC(=O)N1)C(=O)N1CCC[C@H]1C(N)=O [Glp-Gln-ProNH2] ([pGlu]-Gln-Pro-NH2) here. 69

Enter recorded Ki with TRH-DE (Sus scrofa, UniProt A0A287AP33) for NC(=O)C[C@H](NC(=O)[C@@H]1CCC(=O)N1)C(=O)N1CCC[C@H]1C(N)=O [Glp-Asn-ProNH2, pyroglutamyl-asparaginyl-prolineamide] ([pGlu]-Asn-Pro-NH2) here. 17.5

Enter recorded Ki with TRH-DE (Sus scrofa, UniProt A0A287AP33) for Cc1cc(=O)oc2cc(NC(=O)[C@H](Cc3c[nH]c4ccccc34)NC(=O)[C@H](Cc3ccc(O)cc3)NC(=O)[C@@H]3CCCN3C(=O)[C@H](CC(N)=O)NC(=O)[C@@H]3CCC(=O)N3)ccc12 [Glp-Asn-Pro-Tyr-Trp-AMC] ([pGlu]NPYW-{AMC}) here. 0.04

###

Molecular target: TRH-DE (Sus scrofa)
Construct: The inventor purified TRH-DE from porcine brain according to purification procedures previously published by Dr. K. Bauer; from tissue; host or cells: porcine brain (TRH-DE); bovine kidney (DPP-IV, gift from Dr. C. H. Williams)
Test: continuous coupled fluorometric TRH-DE assay (TRHAMC substrate, DPP-IV coupling enzyme)
Type: biochemical, porcine
Details: non-linear regression, five TRHAMC concentrations and at least three peptide concentrations; mean±S.D. (n=3); listed as Glp-Asn-Pro-NH2
Where a SMILES comes first, the peptide text is derived from it. [ ]: non-standard residue; d: D form. pGlu = O=C1CC[C@@H](C(=O)O)N1
readout kind: pKi
Keep in mind that pKi stands for -log10 of concentration in molar terms.

In one line, give reported pKi of the entry NC(=O)C[C@H](NC(=O)[C@@H]1CCC(=O)N1)C(=O)N1CCC[C@H]1C(N)=O [Glp-Asn-ProNH2, pyroglutamyl-asparaginyl-prolineamide] ([pGlu]-Asn-Pro-NH2) . 4.76

###

Target: TRH-DE (Sus scrofa, UniProt A0A287AP33)
Construct: The inventor purified TRH-DE from porcine brain according to purification procedures previously published by Dr. K. Bauer; from tissue; host or cells: porcine brain (TRH-DE); bovine kidney (DPP-IV, gift from Dr. C. H. Williams)
Experiment: continuous coupled fluorometric TRH-DE assay (TRHAMC substrate, DPP-IV coupling enzyme)
Assay type: biochemical, porcine
Details: non-linear regression, five TRHAMC concentrations and at least three peptide concentrations; mean±S.D. (n=3)
Where a SMILES comes first, the peptide text is derived from it. [ ]: non-standard residue; d: D form. The star is where a group is joined. AMC = Cc1cc(=O)oc2cc(N*)ccc12; pGlu = O=C1CC[C@@H](C(=O)O)N1; Pip = O=C(O)[C@@H]1CCCCN1
Collected Ki values appear next to each entry.
Supply the numeric figure in µM, leaving out any unit text.

Examples with answers:
| compound | system tested | value measured |
| --- | --- | --- |
| Cc1cc(=O)oc2cc(NC(=O)[C@@H]3CCCN3C(=O)[C@H](CC(N)=O)NC(=O)[C@@H]3CCC(=O)N3)ccc12 [Glp-Asn-ProAMC, Glp-Asn-Pro-7amido-4-methyl coumarin] ([pGlu]-Asn-Pro-{AMC}) | TRH-DE (Sus scrofa, UniProt A0A287AP33) | 0.97 |
| NC(=O)[C@@H]1CCCN1C(=O)[C@H](Cc1c[nH]c2ccccc12)NC(=O)[C@@H]1CCC(=O)N1 [Glp-Trp-ProNH2] ([pGlu]-Trp-Pro-NH2) | TRH-DE (Sus scrofa, UniProt A0A287AP33) | 232 |

Now look at this one.
Enter recorded Ki with TRH-DE (Sus scrofa, UniProt A0A287AP33) for NC(=O)[C@@H]1CCCN1C(=O)[C@@H]1CCCCN1C(=O)[C@@H]1CCC(=O)N1 [Glp-homoPro-ProNH2] ([pGlu]-[Pip]-Pro-NH2) here. 500
